// note: pIC50 values for Coagulation factor X (Homo sapiens, UniProt P00742) were reported in different studies
pIC50: −log10 of the molar value.
PARAMETER_MEASURED: pIC50

In [3]: df
Out[3]:
                                    compound  parameter_measured  value_comparator  measured_value
 0  Cc1ccc(NC(=O)c2ccc(Br)s2)c(C(=O)Nc2ccc(N3CCOCC3=O)cc2)c1               pIC50                 =            7.26
 1  Cc1ccc(NC(=O)c2ccc(Cl)s2)c(C(=O)Nc2ccc(-n3ccccc3=O)cc2)c1               pIC50                 =            7.60
 2  CC1=CC(C)(C)N2C(=O)C(=C3SC(=S)NC3=O)c3cc(OC(=O)C=Cc4cccc([N+](=O)[O-])c4)cc1c32               pIC50                 =            5.74
 3  O=C(Nc1ccc(Cl)cc1C(=O)Nc1ccc(-n2ccccc2=O)cc1)c1ccc(Cl)cc1Cl               pIC50                 =            7.09
 4  O=C(Nc1ccc(Cl)cc1C(=O)Nc1ccc(N2CCOCC2=O)cc1)c1ccc(Br)s1               pIC50                 =            6.90
 5  Cc1cccc(C(=O)Nc2ccc(N3CCOCC3=O)cc2)c1NC(=O)c1ccc(Cl)cc1               pIC50                 <            6.00
 6  Cc1ccc(NC(=O)c2ccc(Cl)cc2Cl)c(C(=O)Nc2ccc(N3CCOCC3=O)cc2)c1               pIC50                 =            6.55
 7  Cc1ccc(NC(=O)c2ccc(F)cc2)c(C(=O)Nc2ccc(-n3ccccc3=O)cc2)c1               pIC50                 <            6.00
 8  Cc1ccc(NC(=O)c2ccc(F)cc2)c(C(=O)Nc2ccc(N3CCOCC3=O)cc2)c1               pIC50                 <            6.00
 9  Cc1ccc2nc(Nc3nc(-c4cnc(N5CCCCC5)nc4C)cc(=O)[nH]3)nc(C)c2c1               pIC50                 =            4.92
10  O=C(Nc1ccccc1C(=O)Nc1ccc(N2CCOCC2=O)cc1)c1ccc(Br)s1               pIC50                 =            6.95
11  Cc1cc2nc(Nc3ncc4c(n3)CC(c3cccs3)CC4=O)nc(C)c2cc1C (centres unmarked)               pIC50                 =            5.00
12  COc1ccc(C(=O)Nc2ccccc2C(=O)Nc2ccc(-n3ccccc3=O)cc2)cc1               pIC50                 =            6.74
13  COc1ccc(C(=O)Nc2ccc(C)cc2C(=O)Nc2ccc(-n3ccccc3=O)cc2)cc1               pIC50                 =            6.34
14  Cc1cccc(C(=O)Nc2ccc(-n3ccccc3=O)cc2)c1NC(=O)c1ccc(Cl)s1               pIC50                 <            6.00
15  Cc1ccc(NC(=O)c2ccc(Cl)s2)c(C(=O)Nc2ccc(N3CCOCC3=O)cc2)c1               pIC50                 =            7.15
16  O=C(Nc1ccccc1C(=O)Nc1ccc(N2CCOCC2=O)cc1)c1ccc(Cl)cc1Cl               pIC50                 =            6.89

----------
The compounds below each have a reported IC50 tested on Coagulation factor X (Homo sapiens, UniProt P00742); the values come from various publications.
PARAMETER_MEASURED: IC50

In [3]: df
Out[3]:
                                   compound  parameter_measured  measured_value
0  Cc1cccc(C(=O)Nc2ccc(-n3ccccc3=O)cc2)c1NC(=O)c1ccc(Cl)cc1                IC50          > 1 µM
1  COc1ccc(C(=O)Nc2c(C)cccc2C(=O)Nc2ccc(-n3ccccc3=O)cc2)cc1                IC50          > 1 µM
2  CC1(C)CC2(CCCCC2)N2C(=O)C3(NCCc4c3[nH]c3ccccc43)c3cccc1c32 (stereo not shown)                IC50         > 30 µM
3    Cc1coc2c1C(=O)C(=O)c1c-2ccc2c(C)cccc12                IC50          113 µM

----------
Compiled literature IC50, tested on Coagulation factor X (Homo sapiens, UniProt P00742).
PARAMETER_MEASURED: IC50 (µM)

                                   compound  parameter_measured  unit_annotation  value_comparator  measured_value
0  CC1(c2ccc(Cl)cc2)CC(C)(C)N2C(=O)/C(=N/c3ccc(Oc4ccccc4)cc3)c3cccc1c32 (stereo not shown)                IC50               µM                 =            20.6
1  N#Cc1ccc(C(=O)Nc2ccccc2C(=O)Nc2ccc(-n3ccccc3=O)cc2)cc1                IC50               µM                 >               1
2  COC(=O)c1c(C)[nH]c(-c2ccccc2)c1C1C(=O)N2c3c(cc(OC)cc31)C(C)=CC2(C)C (stereo not shown)                IC50               µM                 >              30
3  O=C(Nc1ccc(Cl)cc1C(=O)Nc1ccc(-n2ccccc2=O)cc1)c1ccc(Cl)s1                IC50               µM                 =            0.43
